Each recorded value in this set is attributed to paper PMC10900215.

Listing of entries alongside the reported viability at 72 h, 5 µM.
Assay: Cell viability assay (CellTiter-Glo) on MOLM-13
Type: cell-based
Details: human, MOLM-13 cells, 5 µM, average of two biological replicates

CC1(C)CCN(Cc2cc(F)c(N3CC(=O)NC4(CCN(c5cc(NCC6CCN(C(=O)CCCCCCCNc7cccc8c7C(=O)N(C7CCC(=O)NC7=O)C8=O)CC6)ncn5)CC4)C3)cc2F)CC1 (stereo not shown): 87%
CC1(C)CCN(Cc2cc(F)c(N3CC(=O)NC4(CCN(c5cc(NCc6ccc(N7CCN(c8cccc9c8C(=O)N(C8CCC(=O)NC8=O)C9=O)CC7)cc6)ncn5)CC4)C3)cc2F)CC1 (stereo not shown): 99.2%
CC1(C)CCN(Cc2cc(F)c(N3CC(=O)NC4(CCN(c5cc(NCc6cccc(CNC(=O)CCn7cc(CNc8cccc9c8C(=O)N(C8CCC(=O)NC8=O)C9=O)nn7)c6)ncn5)CC4)C3)cc2F)CC1 (stereo not shown): 102%

Let us move to another entry and its viability at 72 h, 5 µM.
Input line: Requested read-out: viability at 72 h, 5 µM. Entry: CC1(C)CCN(Cc2cc(F)c(N3CC(=O)NC4(CCN(c5cc(NCC6CCN(C(=O)CCCCCNc7cccc8c7C(=O)N(C7CCC(=O)NC7=O)C8=O)CC6)ncn5)CC4)C3)cc2F)CC1 (stereo not shown)
Output line: 104%
